B1: ZNF277 (parent)
chain: ILREELQKQRLREILEQQQQERND

- Variants of: B1
- protocol-notes: protein stability index of a GFP-peptide fusion (GPS, HEK-293T) (PSI 1-6); higher = more stable;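 further: lentivirally expressed fusions sorted by FACS into six bins by GFP to DsRed ratio, PSI derived from sequencing read proportions per bin multiplied by bin number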
- experimental-setup: c terminus: a fixed tail appended
metric-name: protein stability index
// response body must contain only the number

Sample answers from the record:
E13A | 3.74
R10M | 3.58
E5Q | 4.17

Look at this variant and give its reported protein stability index. Q19H
4.67

And what about the variant E5R ?
3.68

And what about the variant Q18N ?
4.37

And what about the variant Q7I ?
2.9

And what about the variant R3V ?
4.01
